Below, each entry is listed alongside its reported max response.
- Tested on: NIH3T3
- test.protocol: Cytotoxic Profiling of Annotated Libraries Using Quantitative High-Throughput Screening (AID 1296008); further: on the % scale 0 is the no-effect control and ±100 the full control effect; nearly all actives have a fitted effect of over 60% in size
- condition: Five cell lines viability, CellTiter-Glo ATP luminescence, 48-72 h; hits give low values
Records with an inconclusive call do not appear. Activity calls are given as the source filed them. The call rests on the fitted dose curve; in most records, active means well fitted inhibition curve with a large enough effect; inconclusive means small, poorly fitted or top-dose-only effect; inactive means flat fitted curve, though single readings scatter.

>>> reported_measurement("C=CC(C)(O)CC/C=C(\\C)C(=O)O[C@@H]1[C@@H](O)[C@H](OC(C)(C=C)CC/C=C(\\C)C(=O)O[C@@H]2O[C@H](CO)[C@@H](O)[C@H](O)[C@H]2O)O[C@H](CO)[C@H]1OC(=O)/C(C)=C/CCC(C)(O)C=C (stereo partly specified)")
"1.18% (inactive)"
>>> reported_measurement("COC(=O)C1=COC(OC2OC(CO)C(O)C(O)C2O)C2C(C)C(OC(C)=O)C(OC(=O)c3ccccc3)C12 (stereo unspecified)")
"-45.7% (inactive)"
>>> reported_measurement("CC(NC(=O)[C@H](Cc1ccccc1)NC(=O)OCc1ccccc1)C(=O)CF (stereo partly specified)")
"2.43% (inactive)"

[ask] Under NIH3T3: max response value of C=C(CCO[C@@H]1O[C@H](CO)[C@@H](O)[C@H](O)[C@H]1O)C(=O)O ?
[reply] -0.513% (inactive)

[ask] // map COc1ccc(NC(=O)c2ccc(-c3ccc(C(N)=O)cc3C)cc2)cc1N1CCN(C)CC1 to recorded max response (system: NIH3T3)
[reply] 4.28% (inactive)

[ask] Return max response measured with NIH3T3 given this molecule: C=C1CCC2C(C)(C)CC(O)CC2(C)C1CCC(C)CC(=O)O (stereo unspecified)
[reply] -0.43% (inactive)

[ask] Which measured max response belongs to CC1(C(=O)O)CC[C@]2(C(=O)OC3OC(CO)C(O)C(O)C3O)CC[C@]3(C)C(=CCC4[C@@]5(C)CC[C@H](OC6OCC(O)C(O)C6OC6OC(CO)C(O)C(O)C6O)C(C)(C)C5CC[C@]43C)C2C1 (stereo partly specified) , tested on NIH3T3?
[reply] 0.38% (inactive)

[ask] Quick check: max response on NIH3T3, item Fc1ccccc1-c1nc2ccn(Cc3ccc(-c4ccc(C(F)(F)F)cc4C(F)(F)F)nn3)cc-2n1 ?
[reply] -4.04% (inactive)

[ask] max response of C[C@H]1CCN2C[C@]34C[C@@]5(C(=O)Nc6c5ccc5c6OC=CC(C)(C)O5)C(C)(C)C3C[C@]12C(=O)N4C (stereo partly specified) on NIH3T3?
[reply] 3.63% (inactive)

[ask] Which measured max response belongs to C/C=C1/C[N+](C)([O-])C2Cc3c([nH]c4ccccc34)C(=O)CC1C2C(=O)OC (stereo unspecified) , tested on NIH3T3?
[reply] -1.66% (inactive)

[ask] What measured max response is associated with COC(=O)C1=CO[C@@H](O[C@@H]2O[C@H](CO)[C@@H](O)[C@H](O)[C@H]2O)[C@H]2[C@@H]1[C@H](O)[C@H](O)[C@]2(C)O on NIH3T3?
[reply] 2.04% (inactive)

[ask] // map C/C=C(/C)C(=O)OC1C2OC2C2(CO2)C2C3OC(=O)C(C)C3CCC12C (stereo unspecified) to recorded max response (system: NIH3T3)
[reply] -1.74% (inactive)

[ask] Notebook entry, NIH3T3 assay: max response of CC(=O)O[C@H]1C[C@@]2(C)[C@@H](CC[C@H]3[C@@]4(C)C=CC(=O)[C@@H](C)[C@@H]4[C@H](OC(C)=O)C(=O)[C@@]32C)/C1=C(\CCC=C(C)C)C(=O)O = ?
[reply] -2.17% (inactive)

[ask] Checklist item: max response tested on NIH3T3, entry CC(C)=CCC[C@](C)(O[C@@H]1O[C@H](CO[C@@H]2O[C@@H](CO)[C@H](O)[C@H]2O[C@@H]2OC[C@@H](O)[C@H](O)[C@H]2O)[C@@H](O)[C@H](O)[C@H]1O)[C@H]1CC[C@]2(C)[C@@H]1[C@H](O)CC1[C@@]3(C)CC[C@H](O[C@@H]4O[C@H](CO)[C@@H](O)[C@H](O)[C@H]4O[C@@H]4O[C@H](CO)[C@@H](O)[C@H](O)[C@H]4O)C(C)(C)C3CC[C@]12C (stereo partly specified) , value?
[reply] 4.58% (inactive)

[ask] Lab request: please report max response under test system NIH3T3 for COc1cc(/C=C/C(=O)OC[C@H]2O[C@@H](OC3OC=C(C(=O)O)C4C(O)CC(C)(O)C34)[C@H](O)[C@@H](O)[C@@H]2O)cc(OC)c1O (stereo partly specified)
[reply] 4.03% (inactive)

[ask] Request - read-out max response | tested on NIH3T3 | molecule COC(=O)C1=CO[C@@H](O[C@@H]2O[C@H](CO)[C@@H](O)[C@H](O)[C@H]2O)[C@@H]2C(CO)=CC[C@H]12
[reply] -0.343% (inactive)
